Readings of cell proliferation for the listed compounds
- Tested on: U2932 TK216-resistant clone 2
- ASSAY SUMMARY: cell proliferation relative to vehicle (% of vehicle); higher = less growth inhibition
- ASSAY CONDITIONS: 50 nM; 72 h
Where a name gives a salt, the structure may show the parent alone.

COMPOUND | cell proliferation
Cn1cnc([N+](=O)[O-])c1Sc1ncnc2[nH]cnc12 | 100
CC(C)C(=O)Nc1ccc([N+](=O)[O-])c(C(F)(F)F)c1 [Flutamide] | 90.7
COc1cc2ncnc(Nc3ccc(O)c(Br)c3)c2cc1OC | 106
COc1cc2c(NC3CCN(CC4CCCCC4)CC3)nc(N3CCCN(C(C)C)CC3)nc2cc1OCCCN1CCCCC1 | 95.3
CC(C)CCN1c2nc(Nc3cc(F)c(O)c(F)c3)ncc2N(C)C(=O)C1C (configuration not stated) | 114
CC(=O)Nc1ccc(NC(=S)NC(=O)c2ccc(C(C)(C)C)cc2)cc1 | 105
O=C(c1ccc(/C=C/c2n[nH]c3ccccc23)cc1)N1CCNCC1 | 109
NC(=O)c1ccc(I)c([N+](=O)[O-])c1 | 107
CCCc1ccc(OCC(=O)N(Cc2nc(-c3cccnc3)no2)C(C)C)cc1 | 107
Nc1ccccc1NC(=O)c1ccc(CNC(=O)OCc2cccnc2)cc1 | 104
CNCc1ccc(-c2[nH]c3cc(F)cc4c3c2CCNC4=O)cc1 | 101
NC(=O)Nc1sc(-c2ccc(F)cc2)cc1C(N)=O | 109
CO[C@H]1/C=C\C=C(/C)C(=O)NC2=CC(=O)C(NCCN(C)C)=C(C[C@@H](C)C[C@H](OC)[C@H](O)[C@@H](C)/C=C(\C)[C@@H]1OC(N)=O)C2=O [17-DMAG (Alvespimycin) HCl] | 46.7
Cc1nc(NC(=O)N2CCC[C@H]2C(N)=O)sc1-c1ccnc(C(C)(C)C(F)(F)F)c1 | 98.4
NC(=O)NO [Hydroxyurea] | 103
C#Cc1cccc(Nc2ncnc3cc(OC)c(OCCCCCCC(=O)NO)cc23)c1 | 93.7
CN(C)CCOc1ccc(/C(=C(/CCCl)c2ccccc2)c2ccccc2)cc1 [Toremifene Citrate] | 102

====

- System: U2932 TK216-resistant clone 2
- ASSAY SUMMARY: cell proliferation relative to vehicle (% of vehicle); higher = less growth inhibition
- ASSAY CONDITIONS: 50 nM; 72 h
Structures can show the parent of a compound that is named as a salt.
Readings of cell proliferation for the listed compounds

COMPOUND | cell proliferation
COc1cc(Nc2ncc3c(n2)-c2ccc(Cl)cc2C(c2c(F)cccc2OC)=NC3)ccc1C(=O)O | 73.6
CN1CCCN(C(=O)c2cccc(-c3ccc(/C=C4/C(=O)Nc5ccc(Cl)cc54)o3)c2)CC1 | 105
O=C(Nc1cccc(Nc2ncc(Br)c(NCCc3cnc[nH]3)n2)c1)N1CCCC1 | 95.7
CN1CCN(CCOc2cc(OC3CCOCC3)c3c(Nc4c(Cl)ccc5c4OCO5)ncnc3c2)CC1 | 103
FC(F)c1nc2ccccc2n1-c1nc(N2CCOCC2)nc(N2CCOCC2)n1 | 95.8
N#C/C(=C(/N)Sc1ccc(N)cc1)c1ccccc1C(F)(F)F | 102
COc1ccc(C(=O)C2CCN(CC(=O)N(Cc3nc4c(c(=O)[nH]3)COCC4)CC3CC3)CC2)cc1 | 99.7
COc1cc([C@@H]2c3cc4c(cc3[C@@H](O[C@@H]3O[C@@H]5CO[C@@H](C)O[C@H]5[C@H](O)[C@H]3O)[C@H]3COC(=O)[C@H]23)OCO4)cc(OC)c1O [Etoposide] | 95.7
NC(=O)c1ccc(N(C(N)=O)c2c(F)cccc2F)nc1-c1ccc(F)cc1F | 106
COc1ccc(C2=N[C@H](c3ccc(Cl)cc3)[C@H](c3ccc(Cl)cc3)N2C(=O)N2CCNC(=O)C2)c(OC(C)C)c1 | 105
CNC(=O)c1cc(Oc2ccc(NC(=O)Nc3ccc(Cl)c(C(F)(F)F)c3)c(F)c2)ccn1 | 103
Cn1cc(/C=C2\C(=O)Nc3cccnc32)c2ccccc21 | 102
COc1cc([C@@H]2c3cc4c(cc3[C@@H](O[C@@H]3O[C@@H]5CO[C@@H](c6cccs6)O[C@H]5[C@H](O)[C@H]3O)[C@H]3COC(=O)[C@H]23)OCO4)cc(OC)c1O [Teniposide] | 59
C=CCc1ccc(O)c(-c2ccc(O)c(CC=C)c2)c1 | 108
Oc1nc(-c2ccc(C(F)(F)F)cc2)nc2c1CSCC2 | 90.3
C[C@@H]1CC(=O)c2c(ccc3c2C(=O)c2cccc(O)c2C3=O)C1 | 102
CC[C@]1(O)C[C@H]2CN(CCc3c([nH]c4ccccc34)[C@@](C(=O)OC)(c3cc4c(cc3OC)N(C=O)[C@H]3[C@@](O)(C(=O)OC)[C@H](OC(C)=O)[C@]5(CC)C=CCN6CC[C@]43[C@@H]65)C2)C1 [Vincristine sulfate] | 9.22
Nc1cc(C(F)(F)F)c(-c2cc(N3CCOCC3)nc(N3CCOCC3)n2)cn1 | 112
O=c1c(O)c(-c2ccc(O)c(O)c2)oc2cc(O)cc(O)c12 | 110
COc1cccc(-c2cc(F)ccc2C2Cc3nc(N)nc(C)c3C(=O)N2)n1 (stereo not given) | 6.3
NC(=O)c1ncn([C@@H]2O[C@H](CO)[C@@H](O)[C@H]2O)c1N | 88.9
CCNC(=O)c1noc(-c2cc(C(C)C)c(O)cc2O)c1-c1ccc(CN2CCOCC2)cc1 | 4.68
O=C1NC(=O)C(c2ccccc2[N+](=O)[O-])=C1Nc1ccc(O)c(Cl)c1 | 111
O=c1[nH]c(=O)n([C@H]2C[C@H](O)[C@@H](CO)O2)cc1F | 60.3
FC(F)(F)c1ccc(/C=C/c2nc(COc3ccc(CCCCn4ccnn4)cc3)co2)cc1 | 90.7
C[C@@H](Nc1cc(F)cc(F)c1)c1cc(C(=O)N(C)C)cc2c(=O)cc(N3CCOCC3)oc12 | 111
C[C@H]1c2cccc(O)c2C(=O)C2=C(O)[C@]3(O)C(=O)C(C(N)=O)=C(O)[C@@H](N(C)C)[C@@H]3[C@@H](O)[C@@H]21 [Doxycycline Hyclate] | 104
Oc1ccc(/C=C/c2cc(O)cc(O)c2)cc1 | 102
CO[C@H]1C[C@@H]2CC[C@@H](C)[C@@](O)(O2)C(=O)C(=O)N2CCCC[C@H]2C(=O)O[C@H]([C@H](C)C[C@@H]2CC[C@@H](OC(=O)C(C)(CO)CO)[C@H](OC)C2)CC(=O)[C@H](C)/C=C(\C)[C@@H](O)[C@@H](OC)C(=O)[C@H](C)C[C@H](C)/C=C/C=C/C=C/1C | 68.3
COc1cc(OCc2cccc(-c3ccccc3)c2C)cc(OC)c1CN1CCCC[C@H]1C(=O)O | 103
